System: EKVX NSCLC
Assay: NCI tumour cell line growth inhibition, 48 h
MEASURED_METRIC: GI50

MOLECULE	TEST_SYSTEM	RECORDED_VALUE
Cc1cc2nc3c4cc(Cl)ccc4n(CCN(C)C)c3nc2cc1C	EKVX NSCLC	2.45 µM
CCn1c(-c2nonc2N)nc2c(C#CCN)ncc(OCCCN)c21	EKVX NSCLC	> 25 µM
COc1cc(-n2cc(-c3ccc(Cl)c(Cl)c3)nc2SCc2ccccc2)cc(OC)c1OC	EKVX NSCLC	> 100 µM
COc1ccc(/C=C/C=C(/C#N)C(N)=S)cc1	EKVX NSCLC	77.3 µM
CC(=O)[CH-]C(=O)c1ccccc1.CC(=O)[CH-]C(=O)c1ccccc1.CCCCCCCCCCCCCCCCCC(=O)[O-].CCCCCCCCCCCCCCCCCC(=O)[O-].[Ti+4]	EKVX NSCLC	74.2 µM
CCCCCCCCCCCCC(=O)OC(c1cnco1)c1nc(C(O)CC(O)C(O)C(C)O)co1 (stereo not given)	EKVX NSCLC	6.56 µM
COc1ccc(-c2nn(-c3cccc(Cl)c3)cc2C2CC(c3ccccc3)=NN2C(C)=O)cc1 (stereo not given)	EKVX NSCLC	8.75 µM
N#Cc1c(-c2cccs2)c2c(=S)[nH]c(=S)[nH]c2[nH]c1=S	EKVX NSCLC	20 µM

Incoming: Tell me the measured GI50 of C=C1C(O)C2CCC(C)(C)C(=O)C2=C(CC(C)C)C12CC2 (stereo not given) , please.
Outgoing: 78.7 µM

Incoming: Tell me the measured GI50 of CC(=O)c1ccc(Nc2cc(-c3ccccc3)nc3c(O)cccc23)cc1 , please.
Outgoing: 28.7 µM
